Hello, the source for this data is patent US10294207B2, in case you need it.

biological target: IKKε (Homo sapiens, UniProt Q14164); construct: purchased Invitrogen PR8031B; test: IKKε inhibition, ADP-Glo Kinase Assay; assay type: biochemical; details: luminometer
Sequence (Q14164 whole entry): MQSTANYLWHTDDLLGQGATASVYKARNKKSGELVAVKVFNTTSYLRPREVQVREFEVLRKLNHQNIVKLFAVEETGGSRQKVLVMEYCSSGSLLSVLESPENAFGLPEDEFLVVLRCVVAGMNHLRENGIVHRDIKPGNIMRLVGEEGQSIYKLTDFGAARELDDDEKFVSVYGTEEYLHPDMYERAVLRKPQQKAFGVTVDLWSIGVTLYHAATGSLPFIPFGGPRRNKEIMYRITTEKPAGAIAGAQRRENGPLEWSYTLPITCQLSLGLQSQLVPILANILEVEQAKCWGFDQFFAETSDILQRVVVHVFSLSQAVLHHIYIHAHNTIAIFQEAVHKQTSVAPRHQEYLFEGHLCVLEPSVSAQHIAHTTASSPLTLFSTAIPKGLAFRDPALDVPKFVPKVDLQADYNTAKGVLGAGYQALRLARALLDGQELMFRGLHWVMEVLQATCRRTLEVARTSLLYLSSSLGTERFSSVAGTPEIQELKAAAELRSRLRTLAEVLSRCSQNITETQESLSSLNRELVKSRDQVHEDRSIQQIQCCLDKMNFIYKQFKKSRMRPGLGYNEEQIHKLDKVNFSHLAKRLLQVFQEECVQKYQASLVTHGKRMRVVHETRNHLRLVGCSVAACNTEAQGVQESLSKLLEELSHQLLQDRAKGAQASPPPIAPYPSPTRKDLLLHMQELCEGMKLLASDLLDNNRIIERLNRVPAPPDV
Overview of reported log10 IC50 across a group of compounds:
Please interpret these as log10 of IC50 where IC50 is in µM.

Briefly, log10 IC50 measured for CC(NC(=O)c1ccc2[nH]nc(NC(=O)c3ccc(N4CCOCC4)cc3)c2c1)c1cccs1 (centres unmarked) : -2.31

Briefly, log10 IC50 measured for CC[C@@H](NC(=O)c1ccc2[nH]nc(NC(=O)c3ccc(N4CCN(C)CC4)cc3)c2c1)c1cccs1 : -1.96

Continuing:
Briefly, log10 IC50 measured for CCC(NC(=O)c1ccc2[nH]nc(NC(=O)c3ccc(N4CCN(C)CC4)cc3)c2c1)c1cccs1 (centres unmarked) : -2.57

Briefly, log10 IC50 measured for Cn1cc(C(=O)Nc2n[nH]c3ccc(C(=O)NCc4cccs4)cc23)cn1 : -0.60

Briefly, log10 IC50 measured for CC(C)(NC(=O)c1ccc2[nH]nc(NC(=O)c3ccc(F)cc3)c2c1)c1cccs1 : -0.49

Briefly, log10 IC50 measured for CCC[C@H](NC(=O)c1ccc2[nH]nc(NC(=O)c3ccc(N4CCN(C)CC4)cc3)c2c1)c1ccccc1 : 0.65

Briefly, log10 IC50 measured for N#CC1(NC(=O)c2ccc3[nH]nc(NC(=O)c4ccc(F)cc4)c3c2)CC1 : -0.04

----------
target: TBK1 (Homo sapiens, UniProt Q9UHD2); construct: purchased Promega V3991; assay: TBK1 inhibition, ADP-Glo Kinase Assay; format: biochemical; conditions: luminometer
Sequence (Q9UHD2 whole entry): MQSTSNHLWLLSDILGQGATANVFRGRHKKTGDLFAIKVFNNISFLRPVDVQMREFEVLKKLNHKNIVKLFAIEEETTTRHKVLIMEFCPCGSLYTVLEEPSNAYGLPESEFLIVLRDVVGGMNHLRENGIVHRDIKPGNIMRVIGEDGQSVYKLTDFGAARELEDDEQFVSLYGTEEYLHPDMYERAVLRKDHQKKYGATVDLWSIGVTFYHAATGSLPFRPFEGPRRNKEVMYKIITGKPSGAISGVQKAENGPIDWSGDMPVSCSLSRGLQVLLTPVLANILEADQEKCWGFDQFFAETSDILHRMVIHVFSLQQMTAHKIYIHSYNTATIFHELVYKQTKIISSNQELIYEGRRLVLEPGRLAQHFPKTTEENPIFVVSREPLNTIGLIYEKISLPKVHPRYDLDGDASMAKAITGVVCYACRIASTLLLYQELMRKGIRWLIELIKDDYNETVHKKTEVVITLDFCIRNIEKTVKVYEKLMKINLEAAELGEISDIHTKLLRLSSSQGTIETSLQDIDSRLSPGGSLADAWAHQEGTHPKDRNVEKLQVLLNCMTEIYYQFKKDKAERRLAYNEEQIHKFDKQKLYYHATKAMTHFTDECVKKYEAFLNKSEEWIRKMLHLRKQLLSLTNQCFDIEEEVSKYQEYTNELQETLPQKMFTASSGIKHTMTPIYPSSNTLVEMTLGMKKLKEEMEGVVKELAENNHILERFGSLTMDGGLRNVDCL
Overview of reported log10(IC50) across a group of compounds:
Please interpret these as log10 of IC50 where IC50 is in µM.

Example entries and their recorded answers appear below.
Briefly, log10(IC50) measured for O=C(Nc1n[nH]c2ccc(C(=O)NC(c3cccs3)C3CC3)cc12)c1ccc(F)cc1 (stereo not shown) : -1.44

Briefly, log10(IC50) measured for O=C(NCc1cccs1)c1ccc2[nH]nc(NC(=O)c3ccc(NC4CCCCCCC4)cc3)c2c1 : -0.37

Briefly, log10(IC50) measured for CC(C)(NC(=O)c1ccc2[nH]nc(NC(=O)c3ccc(F)cc3)c2c1)c1cccs1 : -1.68

Briefly, log10(IC50) measured for CC(NC(=O)c1ccc2[nH]nc(NC(=O)c3ccc(N4CCN(C)CC4)cc3)c2c1)c1ccncc1 (stereo not shown) : -1.55

Briefly, log10(IC50) measured for O=C1CC(C(=O)Nc2ccc(C(=O)Nc3n[nH]c4ccc(C(=O)NCc5cccs5)cc34)cc2)C1 : -1.57

Briefly, log10(IC50) measured for Cc1cnc(-c2cc3[nH]nc(NC(=O)c4ccccc4)c3s2)o1 : 0.08

Briefly, log10(IC50) measured for CCCCNC(=O)c1ccc2[nH]nc(NC(=O)c3ccc(N4CCOCC4)cc3)c2c1 [Example 115, 2,2,2-trifluoroacetate] : -1.15

Briefly, log10(IC50) measured for CCC(NC(=O)c1ccc2[nH]nc(NC(=O)c3ccc(N4CCC(O)CC4)cc3)c2c1)c1cccs1 (stereo not shown) : -2.55

Briefly, log10(IC50) measured for CN1CCN(c2ccc(C(=O)Nc3n[nH]c4ccc(C(=O)NCc5ccccc5)cc34)cc2)CC1 : -3.03

Briefly, log10(IC50) measured for COc1ccc(C(=O)Nc2n[nH]c3cc(-c4ncc(C)o4)sc23)cc1 : -0.46

Continuing:
Briefly, log10(IC50) measured for CN1CCN(c2ccc(C(=O)Nc3n[nH]c4ccc(C(=O)NC(c5cccs5)C(F)(F)F)cc34)cc2)CC1 (stereo not shown) : -2.07

Briefly, log10(IC50) measured for O=C(Nc1n[nH]c2ccc(C(=O)NC(c3cccs3)C(F)(F)F)cc12)c1ccc(N2CCOCC2)cc1 (stereo not shown) : -1.41

Briefly, log10(IC50) measured for CCCCNC(=O)c1ccc2[nH]nc(NC(=O)c3ccc(N4CCN(C)CC4)cc3)c2c1 [Example 113, 2,2,2-trifluoroacetate] : -1.74

Briefly, log10(IC50) measured for O=C(NCc1cccs1)c1ccc2[nH]nc(NC(=O)c3ccc(NC(=O)C4(C(F)(F)F)CC4)cc3)c2c1 : -1.42

Briefly, log10(IC50) measured for O=C(NCc1ncon1)c1ccc2[nH]nc(NC(=O)c3ccc(N4CCOCC4)cc3)c2c1 [Example 105, 2,2,2-trifluoroacetate] : -1.00

Briefly, log10(IC50) measured for O=C(NCc1cccnc1)c1ccc2[nH]nc(NC(=O)c3ccc(N4CCOCC4)cc3)c2c1 [Example 56, 2,2,2-trifluoroacetate] : -2.48

Briefly, log10(IC50) measured for CN1CCN(c2ccc(C(=O)Nc3n[nH]c4ccc(C(=O)NCc5nccs5)cc34)cc2)CC1 [Example 103, 2,2,2-trifluoroacetate] : -1.70

Briefly, log10(IC50) measured for Cc1cnc(-c2cc3[nH]nc(NC(=O)c4ccc(NCCN5CCOCC5)cc4)c3s2)o1 : -0.92

Briefly, log10(IC50) measured for CC(NC(=O)c1ccc2[nH]nc(NC(=O)c3ccc(F)cc3)c2c1)c1ccncc1 (stereo not shown) : -0.57

Briefly, log10(IC50) measured for Cc1cnc(-c2cc3[nH]nc(NC(=O)c4cccc(F)c4)c3s2)o1 : 0.23

Briefly, log10(IC50) measured for COc1ccc(C(=O)Nc2n[nH]c3ccc(C(=O)NCc4ccco4)cc23)cc1 : -1.43

Briefly, log10(IC50) measured for Cc1cnc(-c2cc3[nH]nc(NC(=O)c4ccc(N5CCOCC5)cc4)c3s2)s1 : -0.48

Briefly, log10(IC50) measured for O=C(NCc1cccs1)c1ccc2[nH]nc(NC(=O)c3cccc(N4CCOCC4)c3)c2c1 : -1.11

Briefly, log10(IC50) measured for CN1CCN(c2ccc(C(=O)Nc3n[nH]c4ccc(C(=O)NCc5ccc(C(F)(F)F)cc5)cc34)cc2)CC1 : -0.01
